Target: Cytochrome P450 2C9 (Homo sapiens) (UniProt P11712)
Sequence (P11712 whole entry, looked up): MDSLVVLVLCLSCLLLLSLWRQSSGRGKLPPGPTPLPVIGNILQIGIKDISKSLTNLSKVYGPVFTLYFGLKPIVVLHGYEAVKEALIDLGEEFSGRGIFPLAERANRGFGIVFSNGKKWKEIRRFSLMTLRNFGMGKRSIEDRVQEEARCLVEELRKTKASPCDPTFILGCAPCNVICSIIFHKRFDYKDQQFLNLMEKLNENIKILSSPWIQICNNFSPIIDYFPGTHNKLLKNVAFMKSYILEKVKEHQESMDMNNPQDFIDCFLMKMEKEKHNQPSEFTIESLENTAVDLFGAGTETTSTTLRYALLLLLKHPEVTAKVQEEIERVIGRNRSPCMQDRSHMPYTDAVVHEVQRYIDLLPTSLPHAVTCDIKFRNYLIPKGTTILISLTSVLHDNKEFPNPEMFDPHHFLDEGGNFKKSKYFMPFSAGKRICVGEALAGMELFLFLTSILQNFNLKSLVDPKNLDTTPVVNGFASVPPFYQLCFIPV
Assay: Cytochrome P450 family 2 subfamily C member 9 (CYP2C9) small molecule antagonists: luciferase biochemical (cell-free) qHTS assay (AID 1645842); note: nearly all actives have a fitted effect of over 55% in size
Details: P450-Glo CYP2C9 enzyme assay, luciferin luminescence; series mostly up to 57.4 µM
Records with an inconclusive call do not appear. Activity calls are given as the source filed them. Calls come from the whole dose curve; as a rule, active = well fitted inhibition curve with a large enough effect in the repeat runs; inconclusive = weak or mixed curves; inactive = no such curve, though single readings can be large or run the other way.
Classes used: active, inactive

compound: COC[C@H](NC(=O)c1cnc(C)s1)C(=O)N[C@@H](COC)C(=O)N[C@@H](Cc1ccccc1)C(=O)[C@@]1(C)CO1
category: inactive
--
compound: CC(C)C[C@H](NC(=O)CNC(=O)c1cc(Cl)ccc1Cl)B1OC(=O)CC(CC(=O)O)(C(=O)O)O1 (stereo not given in full)
category: inactive
--
compound: Cc1cnc(Nc2ccc(CN3CCOCC3)cc2)nc1Nc1cccc(S(=O)(=O)NC(C)(C)C)c1
category: active
--
compound: Oc1cc(-c2nc(-c3ccccc3)[nH]c2-c2ccncc2)ccc1Cl
category: active
--
compound: Oc1cc2c(cc1O)C1c3ccc(O)c(O)c3OCC1(O)C2 (stereo not given)
category: active
